- Tested on: skin of human volunteers
- measurementNotes: Visual observation of vasodilation (blushing) after topical application of niacin ester lotions to the forearm
- Type: in vivo
- conditionNotes: 0.1% in skin lotion, anterior surface of forearm, visual observation of blushing
endpoint: Vasodilation at 0.1%

INSERT INTO results (smilesentry, endpoint, observedvalue) VALUES
  ('CCCCCCCCCCCCCOC(=O)c1cccnc1', 'Vasodilation at 0.1%', 'No'),
  ('CCCCOC(=O)c1cccnc1', 'Vasodilation at 0.1%', 'Yes'),
  ('CCOC(=O)c1cccnc1', 'Vasodilation at 0.1%', 'Yes');

----------
- Test system: skin of human volunteers
- measurementNotes: Visual observation of vasodilation (blushing) after topical application of niacin ester lotions to the forearm
- Type: in vivo
- conditionNotes: 0.1% in skin lotion, anterior surface of forearm, visual observation of blushing
endpoint: Vasodilation at 0.1%

INSERT INTO measurements (smilesentry, endpoint, observedvalue) VALUES
  ('COC(=O)c1cccnc1', 'Vasodilation at 0.1%', 'Yes'),
  ('CCCCCCCCCCCCCCCOC(=O)c1cccnc1', 'Vasodilation at 0.1%', 'No'),
  ('CCCCCCCCCCCCOC(=O)c1cccnc1', 'Vasodilation at 0.1%', 'No'),
  ('CCCCCCCCCOC(=O)c1cccnc1', 'Vasodilation at 0.1%', 'No'),
  ('CCCCCCOC(=O)c1cccnc1', 'Vasodilation at 0.1%', 'Yes'),
  ('CCCCCCCCCCCCCCOC(=O)c1cccnc1', 'Vasodilation at 0.1%', 'No'),
  ('CCCCCCCCCCCOC(=O)c1cccnc1', 'Vasodilation at 0.1%', 'No'),
  ('CCCCCCCCCCCCCCCCCCOC(=O)c1cccnc1', 'Vasodilation at 0.1%', 'No'),
  ('CCCCCCCCOC(=O)c1cccnc1', 'Vasodilation at 0.1%', 'Yes'),
  ('CCCCCCCCCCOC(=O)c1cccnc1', 'Vasodilation at 0.1%', 'No'),
  ('CCCCCCCCCCCCCCCCOC(=O)c1cccnc1', 'Vasodilation at 0.1%', 'No');

----------
Reported logP by item:
- measurementNotes: Determination of log P (Poct/w) values in accordance with Harnisch, et al.
- Format: physicochemical
- conditionNotes: experimentally determined, following Harnisch
endpoint: logP

INSERT INTO results (smilesentry, observedvalue) VALUES
  ('CCCCCCCCCCOC(=O)c1cccnc1', 5.8),
  ('CCCCCCCCCCCCCCCCCCOC(=O)c1cccnc1', 9.7),
  ('CCCCCCOC(=O)c1cccnc1', 3.5),
  ('CCCCCCCCCCCCCOC(=O)c1cccnc1', 7.5),
  ('CCCCCCCCCCCCCCCOC(=O)c1cccnc1', 8.3),
  ('CCCCCCCCCCCCCCCCOC(=O)c1cccnc1', 9.2),
  ('CCCCOC(=O)c1cccnc1', 2.4);

----------
Reported logP by item:
- measurementNotes: Determination of log P (Poct/w) values in accordance with Harnisch, et al.
- Type: physicochemical
- conditionNotes: octanol/water, experimentally determined, following Harnisch
endpoint: logP

INSERT INTO assay_data (smilesentry, observedvalue) VALUES
  ('CCCCCCCCCCCCCCOC(=O)c1cccnc1', 7.6),
  ('CCCCCCCCCCCCOC(=O)c1cccnc1', 6.6);
